Below, each entry is listed alongside its reported MIC.
- Test system: G(−) bacterial strains
- assay name: Dilution antimicrobial susceptibility tests (MIC, NCCLS agar dilution / broth dilution)
- Format: cell-based, Gram-negative organisms
- settings: strain #9 Enterobacter cloacae, Cf-R; unit assumed
reported property: MIC (µg/mL)

molecule="C[C@@H](O)C1C(=O)N2C(C(=O)O)=C(CN3CC[C@H](CNC(=N)N)C3)[C@H](C)C12 (stereo partly drawn)" reported_property=MIC unit_of_measure=µg/mL readout_number=1
molecule="CC(=O)NC(=N)N[C@H]1CCN(CC2=C(C(=O)O)N3C(=O)C([C@@H](C)O)C3[C@H]2C)C1 (stereo partly drawn)" reported_property=MIC unit_of_measure=µg/mL readout_number=1
molecule="C[C@@H](O)C1C(=O)N2C(C(=O)O)=C(CN3CC[C@H](N)C3)[C@H](C)C12 (stereo partly drawn)" reported_property=MIC unit_of_measure=µg/mL readout_number=0.5
molecule=C[C@@H](O)[C@H]1C(=O)N2C(C(=O)O)=C(CN3C[C@@H](O)[C@H](NC(=N)N)C3)[C@H](C)[C@H]12 reported_property=MIC unit_of_measure=µg/mL readout_number=0.5
molecule="C[C@@H](O)C1C(=O)N2C(C(=O)O)=C(CN3CC[C@H](NC(=N)N)C3)[C@H](C)C12 (stereo partly drawn)" reported_property=MIC unit_of_measure=µg/mL readout_number=0.5
molecule="C[C@@H](O)C1C(=O)N2C(C(=O)O)=C(CN3CC[C@H](NCC(N)=O)C3)[C@H](C)C12 (stereo partly drawn)" reported_property=MIC unit_of_measure=µg/mL readout_number=1
molecule="C[C@@H](O)C1C(=O)N2C(C(=O)O)=C(CN3CC[C@H](NS(N)(=O)=O)C3)[C@H](C)C12 (stereo partly drawn)" reported_property=MIC unit_of_measure=µg/mL readout_number=1
molecule="CC(O)C1C(=O)N2C(C(=O)O)=C(CN3CC(O)C(C(=N)N)C3)C(C)C12 (mixture of isomers) [Compound 185b]" reported_property=MIC unit_of_measure=µg/mL readout_number=0.13
molecule="CNC(=O)[C@H]1CCN(CC2=C(C(=O)O)N3C(=O)C([C@@H](C)O)C3[C@H]2C)C1 (stereo partly drawn)" reported_property=MIC unit_of_measure=µg/mL readout_number=1
